These entries and their values trace back to patent US20260130395A1.

Entries and their measured Stability of Plant-Derived Cannabinoid Compounds in AB White, 8° C. follow.
Experiment: Stability of cannabinoid compounds and Vitamin E components in Beverage 1 (AB White) by LCMSMS
Format: physicochemical
Details: AB White stored at 8° C.; 300 days
Property: Stability of Plant-Derived Cannabinoid Compounds in AB White, 8° C. (µg/mL)

[[record]]
chemical_structure = "C=C(C)[C@@H]1CCC(C)=C[C@H]1c1c(O)cc(CCC)cc1O"
value_measured = 0.143

[[record]]
chemical_structure = "CCCCCc1cc(O)c(C/C=C(\\C)CCC=C(C)C)c(O)c1"
value_measured = 4.74

[[record]]
chemical_structure = "CCCCCc1cc(O)c2c(c1)OC(C)(C)c1ccc(C)cc1-2"
value_measured = 2.71

